Molecular target: V-type proton ATPase subunit B, brain isoform (Bos taurus) (UniProt P31408)
Sequence (P31408 whole entry, canonical isoform): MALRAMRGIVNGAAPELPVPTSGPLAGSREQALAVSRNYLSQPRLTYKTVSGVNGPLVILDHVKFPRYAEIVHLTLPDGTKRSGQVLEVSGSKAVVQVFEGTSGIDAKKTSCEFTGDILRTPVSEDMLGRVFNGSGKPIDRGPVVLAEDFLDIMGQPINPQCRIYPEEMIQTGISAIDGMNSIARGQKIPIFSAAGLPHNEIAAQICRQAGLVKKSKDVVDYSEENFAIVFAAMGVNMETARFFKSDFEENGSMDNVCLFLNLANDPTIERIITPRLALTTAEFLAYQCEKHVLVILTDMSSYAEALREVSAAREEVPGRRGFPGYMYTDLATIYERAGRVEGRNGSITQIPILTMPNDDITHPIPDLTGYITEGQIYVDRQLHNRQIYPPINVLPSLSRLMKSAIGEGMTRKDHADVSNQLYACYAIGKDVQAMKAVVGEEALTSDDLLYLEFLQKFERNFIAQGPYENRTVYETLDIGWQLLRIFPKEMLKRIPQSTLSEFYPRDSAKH
Experiment: Inhibition of V-ATPase-driven proton transport in membrane vesicles derived from bovine chromaffin granules (bCG); Potency ratio expressed as IC50 of compound/IC50 of baf A1
Parameter: Potency ratio. Scope: all listed entries.
# output: bare number, no unit

# COMPOUND, Potency ratio
records = [
    ("CO/C1=C\\C(C)=C\\[C@@H](C)C(=O)[C@@H](C)C/C(C)=C/C=C/[C@H](OC)[C@@H]([C@@H](C)[C@@H](O)[C@H](C)[C@@]2(O)CC(=O)[C@H](C)[C@@H](C(C)C)O2)OC1=O", 112),
    ("CO/C1=C\\C(C)=C\\[C@@H](C)[C@@H](O)[C@@H](C)C/C(C)=C/C=C/[C@H](OC)[C@@H]([C@@H](C)[C@@H](O)[C@H](C)[C@@]2(O)CC(=O)[C@H](C)[C@@H](C(C)C)O2)OC1=O", 2.2),
    ("CO/C1=C\\C(C)=C\\[C@@H](C)[C@@H](O)[C@@H](C)C/C(C)=C/C=C/[C@H](OC)[C@@H]([C@@H](C)[C@@H](O)[C@H](C)[C@@]2(O)C[C@@H](OC)[C@H](C)[C@@H](C(C)C)O2)OC1=O", 1.2),
    ("CO/C1=C\\C(C)=C\\[C@@H](C)[C@@H](O)[C@@H](C)C/C(C)=C/C=C/[C@H](OC)[C@@H]([C@@H](C)[C@@H](O)[C@H](C)C(O)C[C@H](O)[C@H](C)C(O)C(C)C)OC1=O (stereo not given in full)", 8.2),
]

Let's switch to this compound now.
The value of Potency ratio measured for the compound `CO/C1=C\C(C)=C\[C@@H](C)[C@@H](O)[C@@H](C)C/C(C)=C/C=C/[C@H](OC)[C@@H]([C@@H](C)[C@@H](O)[C@H](C)[C@@]2(O)C[C@@H](O)[C@H](C)[C@@H](C(C)C)O2)OC1=O` turned out to be 1

// data source = ChEMBL document CHEMBL1131233
